Recorded Maximum mean fluorescence intensity, one value per entry.
# assayed-system: T1, human MSLN-R3 protein (Met487-Ser606 of NCBI AAH09272.1) expressed on HEK293T-hMSLN-R3 cells (human, UniProt Q13421 487-606)
# T1 construct: also called Region3
# T1 sequence (Q13421 495-614): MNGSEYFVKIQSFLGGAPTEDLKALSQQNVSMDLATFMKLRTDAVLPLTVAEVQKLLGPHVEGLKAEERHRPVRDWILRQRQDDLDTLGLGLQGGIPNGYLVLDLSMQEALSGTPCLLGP
# method-summary: FACS on HEK293T-hMSLN-R3 cells
I only need the number, thanks.

# annotated cases, reported Maximum mean fluorescence intensity shown
binder: S009-F3.7.3 (antibody, human IgG1, kappa, V domains shown, human-murine chimeric antibody, human IgG1/kappa constant regions) VH: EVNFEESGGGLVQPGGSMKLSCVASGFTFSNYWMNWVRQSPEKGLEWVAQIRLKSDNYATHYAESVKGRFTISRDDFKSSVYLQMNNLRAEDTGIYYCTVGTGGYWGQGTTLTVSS VL: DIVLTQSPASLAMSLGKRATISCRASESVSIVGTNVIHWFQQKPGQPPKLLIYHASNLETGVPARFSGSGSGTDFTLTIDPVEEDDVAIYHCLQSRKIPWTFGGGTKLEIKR
Maximum mean fluorescence intensity: 7920
//
binder: S009-F3.38.10 (antibody, human IgG1, kappa, V domains shown, human-murine chimeric antibody, human IgG1/kappa constant regions) VH: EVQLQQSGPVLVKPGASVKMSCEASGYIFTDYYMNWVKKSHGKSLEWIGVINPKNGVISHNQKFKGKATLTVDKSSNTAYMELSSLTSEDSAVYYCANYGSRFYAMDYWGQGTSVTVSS VL: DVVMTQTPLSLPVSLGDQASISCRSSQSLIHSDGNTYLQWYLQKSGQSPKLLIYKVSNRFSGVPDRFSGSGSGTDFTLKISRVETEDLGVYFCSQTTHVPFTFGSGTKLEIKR
Maximum mean fluorescence intensity: 6770
//
binder: S009-F3.16.1 (antibody, human IgG1, kappa, V domains shown, human-murine chimeric antibody, human IgG1/kappa constant regions) VH: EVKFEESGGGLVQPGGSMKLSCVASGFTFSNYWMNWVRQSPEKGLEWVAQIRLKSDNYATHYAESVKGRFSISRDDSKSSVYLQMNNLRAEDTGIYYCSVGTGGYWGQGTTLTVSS VL: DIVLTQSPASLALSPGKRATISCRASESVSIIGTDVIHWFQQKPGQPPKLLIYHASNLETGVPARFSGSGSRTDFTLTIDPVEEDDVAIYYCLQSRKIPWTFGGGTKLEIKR
Maximum mean fluorescence intensity: 8060
//
binder: S009-F3.74.20 (antibody, human IgG1, kappa, V domains shown, human-murine chimeric antibody, human IgG1/kappa constant regions) VH: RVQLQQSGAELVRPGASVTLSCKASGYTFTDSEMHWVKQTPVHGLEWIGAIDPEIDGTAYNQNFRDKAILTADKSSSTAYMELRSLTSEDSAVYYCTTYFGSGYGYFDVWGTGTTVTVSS VL: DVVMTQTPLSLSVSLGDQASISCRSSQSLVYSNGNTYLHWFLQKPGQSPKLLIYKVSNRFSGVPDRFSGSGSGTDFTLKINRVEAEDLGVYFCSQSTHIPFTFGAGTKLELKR
Maximum mean fluorescence intensity: 5070
//
binder: S009-F3.80.22 (antibody, human IgG1, kappa, V domains shown, human-murine chimeric antibody, human IgG1/kappa constant regions) VH: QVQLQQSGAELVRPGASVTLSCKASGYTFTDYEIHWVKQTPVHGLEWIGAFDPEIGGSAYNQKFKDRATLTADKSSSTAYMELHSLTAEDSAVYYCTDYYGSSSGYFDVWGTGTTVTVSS VL: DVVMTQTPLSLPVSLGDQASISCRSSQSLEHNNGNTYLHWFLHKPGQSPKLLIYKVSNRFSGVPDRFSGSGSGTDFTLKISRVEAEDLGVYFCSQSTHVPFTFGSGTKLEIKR
Maximum mean fluorescence intensity: 4800

// below: Maximum mean fluorescence intensity requested for another binder
Find the recorded Maximum mean fluorescence intensity belonging to S009-F3.45.21 (antibody, human IgG1, kappa, V domains shown, human-murine chimeric antibody, human IgG1/kappa constant regions) VH: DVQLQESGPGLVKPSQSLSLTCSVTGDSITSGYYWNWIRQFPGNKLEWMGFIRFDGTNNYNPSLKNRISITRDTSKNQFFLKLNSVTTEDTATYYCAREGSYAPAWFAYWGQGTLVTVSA VL: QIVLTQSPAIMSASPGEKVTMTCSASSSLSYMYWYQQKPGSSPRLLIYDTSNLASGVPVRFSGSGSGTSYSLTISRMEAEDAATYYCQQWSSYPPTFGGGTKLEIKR and report it. 81
